target: human placental β-glucocerebrosidase (Homo sapiens); construct: Human placental β-glucocerebrosidase was isolated and purified; from tissue; host or cells: human placenta; assay: β-Glucocerebrosidase inhibition assay (4-methylumbelliferyl-β-glucoside, fluorogenic); type: biochemical
Sequence (P04062 40-536): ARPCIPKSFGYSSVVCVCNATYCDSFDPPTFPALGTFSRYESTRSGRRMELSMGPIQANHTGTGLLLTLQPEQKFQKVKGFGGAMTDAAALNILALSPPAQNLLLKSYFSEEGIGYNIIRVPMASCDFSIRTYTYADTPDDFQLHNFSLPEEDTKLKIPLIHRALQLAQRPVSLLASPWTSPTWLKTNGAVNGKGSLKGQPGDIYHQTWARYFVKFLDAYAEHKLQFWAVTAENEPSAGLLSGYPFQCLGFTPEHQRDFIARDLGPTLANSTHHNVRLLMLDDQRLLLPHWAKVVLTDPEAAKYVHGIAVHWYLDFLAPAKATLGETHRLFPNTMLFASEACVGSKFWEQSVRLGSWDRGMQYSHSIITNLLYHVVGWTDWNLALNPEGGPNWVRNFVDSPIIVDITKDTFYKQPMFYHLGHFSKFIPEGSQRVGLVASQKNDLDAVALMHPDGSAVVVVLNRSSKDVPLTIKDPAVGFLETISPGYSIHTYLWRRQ
METRIC_NAME: IC50 (nM)

{"columns": ["COMPOUND", "RECORDED_NUMBER"],
 "data": [
  ["[N-]=[N+]=Nc1ccc(NCCCCCCN2C[C@H](O)[C@@H](O)[C@H](O)[C@H]2CO)c([N+](=O)[O-])c1 [UV5]", 150]
]}

----------
biological target: ceramide glucosyltransferase (Homo sapiens); construct: endogenous in cells; host or cells: HL60 cells; test: Ceramide glucosyltransferase cellular assay (GM3 reduction in HL60 cells, NP-HPLC); format: cell-based; settings: 3 days, GM3 peak area
Sequence (Q16739 whole entry): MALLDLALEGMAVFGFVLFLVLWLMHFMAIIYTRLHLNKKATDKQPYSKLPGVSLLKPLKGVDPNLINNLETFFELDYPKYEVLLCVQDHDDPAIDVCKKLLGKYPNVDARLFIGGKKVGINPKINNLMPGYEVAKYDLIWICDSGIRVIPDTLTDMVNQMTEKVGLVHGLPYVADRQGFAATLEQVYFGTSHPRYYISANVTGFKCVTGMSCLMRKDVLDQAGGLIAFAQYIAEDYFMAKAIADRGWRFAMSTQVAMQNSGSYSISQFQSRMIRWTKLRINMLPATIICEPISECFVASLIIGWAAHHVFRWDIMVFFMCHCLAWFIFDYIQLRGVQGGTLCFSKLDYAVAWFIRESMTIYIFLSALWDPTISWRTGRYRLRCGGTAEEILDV

{"columns": ["MOLECULAR_STRING", "ASSAYED_TARGET", "UNIT_NAME", "IC50"],
 "data": [
  ["[N-]=[N+]=Nc1ccc(NCCCCCCN2C[C@H](O)[C@@H](O)[C@H](O)[C@H]2CO)c([N+](=O)[O-])c1", "ceramide glucosyltransferase (Homo sapiens)", "nM", 49],
  ["COCCCCCCCCCN1C[C@H](O)[C@@H](O)[C@H](O)[C@H]1CO", "ceramide glucosyltransferase (Homo sapiens)", "nM", 190]
]}
